Field: Max MFI. Provide a value for each of the binders that follow.
# tgt: T1, human CLDN18.2 (human)
# T1 construct: also called huCLDN18.2; hCLDN18.2
# experiment: flow cytometry titration, PA-TU-8988S-High cells
State just the number; it will be interpreted in MFI.

response.value for IMAB362 (antibody, human IgG1, kappa, V domains shown, Control, chimeric IgG1, synthesized from the published chains; also called Claudiximab; Zolbetuximab) VH: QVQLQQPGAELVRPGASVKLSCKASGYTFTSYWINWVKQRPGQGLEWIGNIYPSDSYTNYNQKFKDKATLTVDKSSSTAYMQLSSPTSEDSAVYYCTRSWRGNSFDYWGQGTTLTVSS VL: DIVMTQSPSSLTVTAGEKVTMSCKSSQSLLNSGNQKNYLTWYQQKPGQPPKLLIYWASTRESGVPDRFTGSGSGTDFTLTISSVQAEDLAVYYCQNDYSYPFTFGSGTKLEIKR (field: Max MFI) = 1050

response.value for hCl1a (antibody, human IgG1, kappa, V domains shown, Humanized) VH: QVQLVQSGAEVKKPGASVKVSCKASGYTFTDYAMHWVRQAPGQRLEWMGWINTYTGKPTYAQKFQGRVTITRDTSASTAYMELSSLRSEDTAVYYCARAVFYGYTMDAWGQGTLVTVSS VL: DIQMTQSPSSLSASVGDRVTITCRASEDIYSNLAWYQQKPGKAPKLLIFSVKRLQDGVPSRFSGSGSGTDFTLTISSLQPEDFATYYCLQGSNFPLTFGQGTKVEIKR (field: Max MFI) = 1650

response.value for hCl1b (antibody, human IgG1, kappa, V domains shown, Humanized) VH: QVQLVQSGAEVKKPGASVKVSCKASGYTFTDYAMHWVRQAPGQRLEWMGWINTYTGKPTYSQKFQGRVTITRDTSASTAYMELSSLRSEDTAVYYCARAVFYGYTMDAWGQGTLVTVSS VL: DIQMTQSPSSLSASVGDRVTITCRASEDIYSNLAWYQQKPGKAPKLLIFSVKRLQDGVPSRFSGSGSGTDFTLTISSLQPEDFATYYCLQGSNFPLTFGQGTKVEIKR (field: Max MFI) = 1720
